TEST NAME: chemical genetic growth profiling, strain panel (AID 1159580);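 also: tested at 20 µM; growth read once vehicle control cultures reached saturation at 30 °C; 1 = growth at the plate median or of vehicle wells; lower values mean less growth of the strain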
CONDITIONS: S. cerevisiae deletion strains, growth OD, locus YLR221C, strain rsa3
In all, about 5,500 compounds went through this assay and about 2,000 (36%) were called active. Inconclusive results (about 18%) are left out. Rule as the data show it: active = normalized growth mostly below about 0.91 (no sharp cut-off); inconclusive = no clear call, values can overlap the other calls; inactive = mostly above about 0.92. The list shows a part of the results. Where a SMILES comes first, the peptide text is derived from it. Bridges are numbered along the chain shown (N, C = ends). Side-chain parts run from the residue outwards. [ ]: non-standard residue; d: D form. The star is where a group is joined. Octanoyl(6-Me) = CCC(C)CCCCC(=O)*; X1 = CCC(C)C(N)C1=NC(C(=O)*)CS1; Orn = NCCC[CH](N)C(=O)O; Dab = NCC[CH](N)C(=O)O
Labels: 1 = active, -1 = inactive

{"COMPOUND": "NC(=O)NO", "CLASS NAME": -1}
{"COMPOUND": "CCNc1nc(Cl)nc(NCC)n1", "CLASS NAME": -1}
{"COMPOUND": "CCCCc1nc(Cl)c(CO)n1Cc1ccc(-c2ccccc2-c2nn[nH]n2)cc1", "CLASS NAME": -1}
{"COMPOUND": "CC1(C)S[C@@H]2[C@H](NC(=O)Cc3ccccc3)C(=O)N2[C@H]1C(=O)O", "CLASS NAME": -1}
{"COMPOUND": "CCCc1nc2c(C)cc(-c3nc4ccccc4n3C)cc2n1Cc1ccc(-c2ccccc2C(=O)O)cc1", "CLASS NAME": -1}
{"COMPOUND": "C=C(C)[C@H]1Cc2c(ccc3c2O[C@@H]2COc4cc(OC)c(OC)cc4[C@@H]2C3=O)O1", "CLASS NAME": -1}
{"COMPOUND": "CC(NCCC(c1ccccc1)c1ccccc1)c1ccccc1 (configuration not stated)", "CLASS NAME": -1}
{"COMPOUND": "CC(=O)OC1CCC2(C)C3CC(=O)C4(C)C(CC5OC6(CCC(C)CO6)[C@@H](C)C54)C3CC[C@H]2C1 (some centres not stated)", "CLASS NAME": -1}
{"COMPOUND": "CC(=O)NO", "CLASS NAME": -1}
{"COMPOUND": "CCN(CC)CCNC(=O)c1cc(Cl)c(N)cc1OC", "CLASS NAME": -1}
{"COMPOUND": "CCC(C)C(N)C1=NC(C(=O)NC(CC(C)C)C(=O)NC(CCC(=O)O)C(=O)NC(C(=O)NCCCCC2NC(=O)C(CC(N)=O)NC(=O)C(CC(=O)O)NC(=O)C(Cc3cnc[nH]3)NC(=O)C(Cc3ccccc3)NC(=O)C(C(C)CC)NC(=O)C(CCCN)NC2=O)C(C)CC)CS1 (stereo not drawn) (cyclo(DNK([Ile-Glu-Leu-X1])[Orn]IFH); configuration not given here)", "CLASS NAME": -1}
{"COMPOUND": "CC(=O)O[C@@H]1CC[C@]2(C)C3CC[C@]4(C)C(=O)CCC4C3CC[C@H]2C1 (some centres not stated)", "CLASS NAME": -1}
{"COMPOUND": "CNCC[C@@H](Oc1ccccc1)c1ccccc1", "CLASS NAME": -1}
{"COMPOUND": "CC(=O)O[C@H]1CC[C@]2(C)C3CC[C@@]4(C)C(CC5O[C@@]6(CCC(C)CO6)[C@@H](C)C54)C3CC[C@@H]2C1 (some centres not stated)", "CLASS NAME": -1}
{"COMPOUND": "NC[C@H]1O[C@H](O[C@H]2C(O[C@@H]3O[C@H](CO)[C@@H](O)[C@H]3O)[C@@H](O)[C@H](N)C[C@@H]2N)[C@H](N)[C@@H](O)[C@@H]1O (some centres not stated)", "CLASS NAME": -1}
{"COMPOUND": "CCOc1cccc(C(=O)c2ccc(O)c(O)c2O)c1", "CLASS NAME": 1}
{"COMPOUND": "COc1ccc(-c2oc3ccccc3c(=O)c2O)cc1OC", "CLASS NAME": 1}
{"COMPOUND": "CC(C)CC1NC(=O)C(CCCN)NC(=O)C(C(C)C)NC(=O)C2CCCN2C(=O)C(Cc2ccccc2)NC(=O)C(CC(C)C)NC(=O)C(CCCN)NC(=O)C(C(C)C)NC(=O)C2CCCN2C(=O)C(Cc2ccccc2)NC1=O (configuration not stated) (cyclo(FPV[Orn]LFPV[Orn]L); configuration not given here)", "CLASS NAME": -1}
{"COMPOUND": "COc1cc(O)cc(OC)c1OC", "CLASS NAME": -1}
{"COMPOUND": "COc1c2ccoc2cc2oc(C)cc(=O)c12", "CLASS NAME": -1}
{"COMPOUND": "O=c1[nH]cnc2c1ncn2C1O[C@H](CO)[C@@H](O)[C@H]1O (some centres not stated)", "CLASS NAME": -1}
{"COMPOUND": "CCC(C)CCCCC(=O)NC(CCN)C(=O)NC(C(=O)NC(CCN)C(=O)NC1CCNC(=O)C(C(C)O)NC(=O)C(CCN)NC(=O)C(CCN)NC(=O)C(CC(C)C)NC(=O)C(Cc2ccccc2)NC(=O)C(CCN)NC1=O)C(C)O (configuration not stated) ({Octanoyl(6-Me)}-[Dab]T[Dab][Dab][Dab]FL[Dab][Dab]T; lactam 4-C; configuration not given here)", "CLASS NAME": -1}
{"COMPOUND": "CC(=O)O[C@H]1CC[C@]2(C)C3CC(=O)[C@]4(C)C(C(C)=O)=CCC4C3CC[C@H]2C1 (some centres not stated)", "CLASS NAME": -1}
{"COMPOUND": "CC1=NN(c2ccccc2)C(=O)C1", "CLASS NAME": -1}
{"COMPOUND": "CC1(C)S[C@@H]2[C@H](NC(=O)[C@H](C(=O)O)c3cccs3)C(=O)N2[C@H]1C(=O)O", "CLASS NAME": -1}
{"COMPOUND": "COC1(C)CCC2OC2(C)CCC2C1CC2(C)C (configuration not stated)", "CLASS NAME": -1}
{"COMPOUND": "COC(=O)C[C@H]1C(C)(C)[C@@H](O)[C@@H]2CC3=C4C=C(OC)O[C@@H](c5ccoc5)[C@]4(C)CCC3[C@@]1(C)C2=O (some centres not stated)", "CLASS NAME": -1}
{"COMPOUND": "CN[C@@H]1[C@@H](O[C@H]2O[C@H](CO)[C@@H](N)[C@H](O)[C@H]2O)O[C@H]2C[C@@H](N)[C@H](O[C@H]3[C@H](O)[C@@H](O)[C@H](N)C[C@@H]3N)O[C@@H]2[C@@H]1O", "CLASS NAME": -1}
{"COMPOUND": "CC1(C)C(=O)[C@@H]2C[C@@]3(O)C4=CC(=O)O[C@@H](c5ccoc5)[C@]4(C)CCC3[C@@](C)(C2=O)[C@H]1CC(=O)O (some centres not stated)", "CLASS NAME": -1}
{"COMPOUND": "COc1cc2c(cc1OC)[C@@H]1C(=O)c3ccc4c(c3O[C@@H]1CO2)CC(C(C)C)O4 (some centres not stated)", "CLASS NAME": -1}
{"COMPOUND": "Cc1onc(-c2c(Cl)cccc2Cl)c1C(=O)N[C@@H]1C(=O)N2[C@@H]1SC(C)(C)[C@@H]2C(=O)O", "CLASS NAME": -1}
{"COMPOUND": "O=C(NC1CCCCC1)NC1CCCCC1", "CLASS NAME": -1}

Source listed as PubChem BioAssay AID1159580.
